// compounds with IC50 on Mcl-1 (Homo sapiens), multi-source literature
Sequence (Q07820 whole entry, species assumed): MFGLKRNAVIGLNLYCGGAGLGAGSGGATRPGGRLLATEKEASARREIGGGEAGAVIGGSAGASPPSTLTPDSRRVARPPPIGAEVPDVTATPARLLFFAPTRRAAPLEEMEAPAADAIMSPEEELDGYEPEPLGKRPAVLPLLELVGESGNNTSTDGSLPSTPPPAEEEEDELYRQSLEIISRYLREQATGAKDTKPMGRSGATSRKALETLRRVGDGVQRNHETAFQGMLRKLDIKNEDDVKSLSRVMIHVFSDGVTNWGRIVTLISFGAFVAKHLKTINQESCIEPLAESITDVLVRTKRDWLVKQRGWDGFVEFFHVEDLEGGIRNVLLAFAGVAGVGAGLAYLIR
valueKind: IC50 (nM)

Consider the following illustrative entries.
compound	valueKind	endpointValue
C[C@@H]1[C@@H](C)S(=O)(=O)NC(=O)c2ccc3c(c2)N(C[C@@H]2CC[C@H]2[C@@H](OCCN2C[C@@H](C)N[C@@H](C)C2)C2=C[C@H]1C2)C[C@@]1(CCCc2c1ccc(Cl)c2F)CO3	IC50	25
CC(=O)N1Cc2cc(n(C)n2)CSc2cc(c3ccccc3c2)OCCCc2c(C(=O)O)n(C)c3c(c(Cl)ccc23)-c2c(nn(C)c2C)C1	IC50	16

(P) Cc1c2c(nn1C)CSCc1cc(n(C)n1)CSc1cc(c3ccc(F)cc3c1)OCCCn1c(C(=O)O)c(C#N)c3c-2c(Cl)ccc31
(Q) CCOC(=O)c1c(C)oc2c1c(C(c1ccncc1)N1CCc3ccccc3C1)c(O)c1ccccc12 (stereo not drawn)
(R) CNC[C@]1(OC)C2=C[C@@H](C2)[C@H](C)[C@@H](C)S(=O)(=O)NC(=O)c2ccc3c(c2)N(C[C@@H]2CC[C@H]21)C[C@@]1(CCCc2c1ccc(Cl)c2F)CO3
(S) CC(=O)N(C)CCO[C@H]1C2=C[C@@H](C2)[C@H](C)[C@@H](C)S(=O)(=O)NC(=O)c2ccc3c(c2)N(C[C@@H]2CC[C@H]21)C[C@@]1(CCCc2c1ccc(Cl)c2F)CO3
Exam item: Could you please sort these 4 entries by IC50 from high to low? # answer = labels listed in requested order
Marked response: Q, P, S, R
